Conditions: in acetone, 278.15 K
OBSERVATION_TYPE: solubility (mole fraction)
One number for each entry.

Fill in solubility (mole fraction) for record `CCOc1ccc2ccccc2c1C(=O)O`
0.0535

====

Conditions: in acetonitrile, 308.15 K
OBSERVATION_TYPE: solubility (mole fraction)

Fill in solubility (mole fraction) for record `CCOc1ccc2ccccc2c1C(=O)O`
0.022

====

Conditions: in methanol, 293.15 K
OBSERVATION_TYPE: solubility (mole fraction)
Answers are plain numbers.

Fill in solubility (mole fraction) for record `CCOc1ccc2ccccc2c1C(=O)O`
0.0552

====

Conditions: in n-propanol, 298.15 K
OBSERVATION_TYPE: solubility (mole fraction)

Fill in solubility (mole fraction) for record `CCOc1ccc2ccccc2c1C(=O)O`
0.0424
